test system: Salmonella typhimurium; assay: Antimicrobial activity against Salmonella typhimurium ATCC 14028 assessed as inhibition of visible bacterial growth incubated for 18 hrs by broth-dilution method; format: functional, Salmonella enterica subsp. enterica serovar Typhimurium; conditions: Salmonella enterica
Numbered stars: 1 amine (or outer) side, 2 acyl side, 3 side chain; on linkers, the order of the positions; unused ones are H or OH. Square brackets hold non-standard residues; d marks the D form. Peptide text beside a SMILES is read from it. * marks the point of attachment. X4 = N[C@@H](Cc1ccccc1)CN(CC(=O)[*:2])[*:1]; X1 = O=S(=O)(c1ccc(C(F)(F)F)cc1)*

compound | MIC, µg/mL
CC(C)(O/N=C(\C(=O)N[C@@H]1C(=O)N2C(C(=O)[O-])=C(C[n+]3ccccc3)CS[C@H]12)c1csc(N)n1)C(=O)O | 256
CC(C)C[C@H](NC(=O)[C@H](CC(C)C)NC(=O)[C@H](CCCCN)NC(=O)[C@H](CCCCN)NC(=O)[C@H](CC(C)C)NC(=O)[C@H](CC(C)C)NC(=O)[C@H](CCCCN)NC(=O)CN(C[C@@H](N)Cc1ccccc1)S(=O)(=O)c1ccc(C(F)(F)F)cc1)C(N)=O (X1-[X4]KLLKKLL-NH2) | 8
